Assay: Cytotoxic Profiling in HEK 293 Cell Line of Diverse Libraries Using Quantitative High-Throughput Screening; note: nearly all actives have a fitted effect of over 60% in size
Conditions: HEK 293 viability, ATP luminescence (CellTiter-Glo), 48-72 h; series mostly up to 115 µM
In all, about 94,000 compounds went through this assay and about 6,200 (6.6%) were called active. Roughly 31% stayed inconclusive and do not appear here. Calls come from the whole dose curve; as a rule, active = well fitted inhibition curve with a large enough effect; inconclusive = small, poorly fitted or top-dose-only effect; inactive = flat fitted curve, though single readings scatter. This is one part of a sample in which actives are shown more often than they occur.
Outcome codes: active, inactive

> print(dat)
                                   compound  group.label
1  Cc1nn(-c2ccccc2)c2c1C(C)N(C1CN(C(=O)Nc3ccccc3)C1)C2=O (centres undefined)     inactive
2  CNC(=O)[C@@H]1C[C@@H](n2cc(CN(C)C(=O)Nc3ccc(C)c(C)c3)nn2)CN1     inactive
3  O=c1[nH]c(C2CCN(Cc3ccc(F)cc3)CC2)nn1Cc1ccccc1     inactive
4  O=C(Cn1nc(-c2ccco2)ccc1=O)NC1CCCc2c1[nH]c1c(Cl)cccc21 (centres undefined)     inactive
5         CCOCCOC1CCN(C(=O)Nc2cccc(F)c2)CC1     inactive
6  CCC(C)NC(=O)Cc1csc2nc(C)c(-c3cc(C)n(-c4ccc(C(C)C)cc4)n3)c(=O)n12 (centres undefined)     inactive
7  Cc1nn(-c2ccc(C(C)C)cc2)c(C)c1[C@@H]1C=C[C@@H](NC(=O)Nc2ccccc2)C1       active
8  COc1ccc(-n2nc(C)c([C@@H]3C=C[C@@H](NC(=O)Nc4ccccc4)C3)c2C)cc1       active
9  COc1ccc(-n2nc(C)c([C@H]3C=C[C@@H](OC(=O)Nc4cccc(F)c4)C3)c2C)cc1       active
